Molecular target: acetylcholine receptor (Homo sapiens)
Assay: SPR binding affinity (RU) of optimized 5mer/6mer/7mer peptides, Examples 6-7
Settings: SPR, peptides at 10 μM; 6mer-2 Bottom sequence

{"substance": "6mer-2-1192 (KHKNKR)", "Binding affinity": "40 Ru"}
{"substance": "6mer-2-1100 (RTAPKK)", "Binding affinity": "24 Ru"}
{"substance": "6mer-2-1029 (KEEFKK)", "Binding affinity": "40 Ru"}
{"substance": "6mer-2-1187 (RTADRK)", "Binding affinity": "36 Ru"}
{"substance": "6mer-2-1067 (RDEIRK)", "Binding affinity": "29 Ru"}
{"substance": "6mer-2-1081 (KYKMRR)", "Binding affinity": "32 Ru"}
{"substance": "6mer-2-1088 (RPCEKK)", "Binding affinity": "39 Ru"}

---

Molecular target: acetylcholine receptor (Homo sapiens, UniProt P02708)
Sequence (P02708 21-457): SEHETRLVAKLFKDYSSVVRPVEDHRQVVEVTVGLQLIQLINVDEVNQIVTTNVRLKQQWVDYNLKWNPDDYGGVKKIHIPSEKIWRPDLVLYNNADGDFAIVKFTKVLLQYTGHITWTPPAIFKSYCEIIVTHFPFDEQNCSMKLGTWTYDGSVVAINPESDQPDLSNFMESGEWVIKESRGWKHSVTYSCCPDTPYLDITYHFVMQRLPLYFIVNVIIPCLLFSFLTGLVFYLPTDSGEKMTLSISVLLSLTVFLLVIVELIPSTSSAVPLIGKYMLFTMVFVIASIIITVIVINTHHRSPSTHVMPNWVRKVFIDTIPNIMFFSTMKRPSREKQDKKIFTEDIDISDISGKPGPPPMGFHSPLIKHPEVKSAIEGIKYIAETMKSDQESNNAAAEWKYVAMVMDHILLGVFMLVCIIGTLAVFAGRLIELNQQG
Assay: SPR binding affinity (RU) of optimized 5mer/6mer/7mer peptides, Examples 6-7
Details: SPR, Resonance Units; peptides tested at 10 μM; 6mer-2 Bottom sequence
Protocol: Based on the frequencies of occurrence of the top 7 amino acids from Table 7 in Example 5, 600 peptides comprising these amino acids (top combinations) and those comprising the 13 less frequently occurring amino acids (bottom combinations) were synthesized for each series of 5mer, 6mer-1, and 6mer-2. The binding affinity of each sequence for the acetylcholine receptor was measured using Surface Plasmon Resonance (SPR) analysis method. The peptides were tested at a concentration of 10 μM. […]

{"substance": "6mer-2-766 (RPTFRK)", "Binding affinity, Ru": 23}
{"substance": "6mer-2-735 (KMNAKK)", "Binding affinity, Ru": 21}
{"substance": "6mer-2-835 (RHCGKR)", "Binding affinity, Ru": 20}
{"substance": "6mer-2-791 (KNMNRK)", "Binding affinity, Ru": 27}
{"substance": "6mer-2-873 (KNWGRR)", "Binding affinity, Ru": 11}
{"substance": "6mer-2-944 (KPEDKK)", "Binding affinity, Ru": 35}
{"substance": "6mer-2-627 (KKTARR)", "Binding affinity, Ru": 33}
{"substance": "6mer-2-878 (KETVRR)", "Binding affinity, Ru": 24}
{"substance": "6mer-2-671 (RDWIRR)", "Binding affinity, Ru": 27}
{"substance": "6mer-2-964 (KCEDRK)", "Binding affinity, Ru": 41}
{"substance": "6mer-2-807 (KIWNRK)", "Binding affinity, Ru": 28}
{"substance": "6mer-2-866 (RDNPKK)", "Binding affinity, Ru": 24}
{"substance": "6mer-2-850 (KTSMKR)", "Binding affinity, Ru": 16}
{"substance": "6mer-2-919 (KAKHKR)", "Binding affinity, Ru": 27}
{"substance": "6mer-2-991 (KCHFRR)", "Binding affinity, Ru": 30}
{"substance": "6mer-2-676 (KCTAKK)", "Binding affinity, Ru": 14}

---

Molecular target: acetylcholine receptor (Homo sapiens, UniProt P02708)
Experiment: SPR binding affinity (RU) of optimized 5mer/6mer/7mer peptides, Examples 6-7
Conditions: SPR, Resonance Units; peptides tested at 10 μM; 6mer-2 Top sequence (Table 12)
Listed next: entries and their corresponding Binding affinity.

{"substance": "6mer-2-363 (KSIYRK)", "u": "Ru", "Binding affinity": 147}
{"substance": "6mer-2-267 (KLYSRR)", "u": "Ru", "Binding affinity": 141}
{"substance": "6mer-2-395 (KWRYRR)", "u": "Ru", "Binding affinity": 148}
{"substance": "6mer-2-312 (KWRTKR)", "u": "Ru", "Binding affinity": 121}
{"substance": "6mer-2-380 (RLVYRK)", "u": "Ru", "Binding affinity": 141}
{"substance": "6mer-2-360 (KGVRRR)", "u": "Ru", "Binding affinity": 141}
{"substance": "6mer-2-326 (RGFYKK)", "u": "Ru", "Binding affinity": 142}
{"substance": "6mer-2-400 (RQIRRR)", "u": "Ru", "Binding affinity": 154}
{"substance": "6mer-2-336 (KLITKR)", "u": "Ru", "Binding affinity": 135}
{"substance": "6mer-2-254 (KRIQRR)", "u": "Ru", "Binding affinity": 148}
{"substance": "6mer-2-243 (KRVLKR)", "u": "Ru", "Binding affinity": 148}
{"substance": "6mer-2-221 (KQVRKK)", "u": "Ru", "Binding affinity": 153}
{"substance": "6mer-2-236 (KWQQKK)", "u": "Ru", "Binding affinity": 131}
{"substance": "6mer-2-376 (KQQCKR)", "u": "Ru", "Binding affinity": 141}
{"substance": "6mer-2-322 (RRYSRR)", "u": "Ru", "Binding affinity": 148}
{"substance": "6mer-2-270 (KSRLRR)", "u": "Ru", "Binding affinity": 148}
{"substance": "6mer-2-244 (RRFSKR)", "u": "Ru", "Binding affinity": 139}
{"substance": "6mer-2-284 (KLRSKR)", "u": "Ru", "Binding affinity": 151}
{"substance": "6mer-2-359 (RLFCKK)", "u": "Ru", "Binding affinity": 136}
{"substance": "6mer-2-362 (RGRQKR)", "u": "Ru", "Binding affinity": 154}
{"substance": "6mer-2-308 (KGISKR)", "u": "Ru", "Binding affinity": 148}
{"substance": "6mer-2-320 (RQYRRK)", "u": "Ru", "Binding affinity": 148}
{"substance": "6mer-2-361 (RSFQRR)", "u": "Ru", "Binding affinity": 153}
{"substance": "6mer-2-229 (RWQSKK)", "u": "Ru", "Binding affinity": 127}
{"substance": "6mer-2-266 (RWQTKK)", "u": "Ru", "Binding affinity": 131}
{"substance": "6mer-2-347 (RRYSKK)", "u": "Ru", "Binding affinity": 148}
{"substance": "6mer-2-262 (KWILKR)", "u": "Ru", "Binding affinity": 142}
{"substance": "6mer-2-358 (RQIYKK)", "u": "Ru", "Binding affinity": 154}
{"substance": "6mer-2-310 (KLFQRK)", "u": "Ru", "Binding affinity": 149}
{"substance": "6mer-2-299 (RWYYRK)", "u": "Ru", "Binding affinity": 141}
{"substance": "6mer-2-277 (RLRYRK)", "u": "Ru", "Binding affinity": 128}
{"substance": "6mer-2-334 (KVILRR)", "u": "Ru", "Binding affinity": 146}
{"substance": "6mer-2-228 (KGQCKK)", "u": "Ru", "Binding affinity": 141}
{"substance": "6mer-2-295 (KVRYKK)", "u": "Ru", "Binding affinity": 145}
{"substance": "6mer-2-339 (KQVYKK)", "u": "Ru", "Binding affinity": 151}
{"substance": "6mer-2-364 (KVFTKK)", "u": "Ru", "Binding affinity": 154}
{"substance": "6mer-2-391 (KQYQKR)", "u": "Ru", "Binding affinity": 141}
{"substance": "6mer-2-332 (RRQYKK)", "u": "Ru", "Binding affinity": 145}
{"substance": "6mer-2-382 (KSVSRR)", "u": "Ru", "Binding affinity": 148}
{"substance": "6mer-2-218 (KGVSKK)", "u": "Ru", "Binding affinity": 147}
{"substance": "KWRQKR [6mer-2-233]", "u": "Ru", "Binding affinity": 190}
{"substance": "6mer-2-296 (KWYRRK)", "u": "Ru", "Binding affinity": 135}
{"substance": "6mer-2-294 (KLYYRR)", "u": "Ru", "Binding affinity": 135}
{"substance": "6mer-2-261 (RWYTKK)", "u": "Ru", "Binding affinity": 121}
{"substance": "6mer-2-341 (KVVTKR)", "u": "Ru", "Binding affinity": 144}
{"substance": "6mer-2-245 (RSLSKR)", "u": "Ru", "Binding affinity": 135}
{"substance": "6mer-2-390 (KWLRRR)", "u": "Ru", "Binding affinity": 145}
{"substance": "6mer-2-205 (KSFQRK)", "u": "Ru", "Binding affinity": 147}
{"substance": "6mer-2-372 (KLVQRR)", "u": "Ru", "Binding affinity": 141}
{"substance": "6mer-2-375 (RVVQKK)", "u": "Ru", "Binding affinity": 131}
{"substance": "6mer-2-397 (RSIYRK)", "u": "Ru", "Binding affinity": 154}
{"substance": "6mer-2-209 (RLYYRK)", "u": "Ru", "Binding affinity": 148}
{"substance": "6mer-2-285 (RRIQRR)", "u": "Ru", "Binding affinity": 142}
{"substance": "6mer-2-265 (RRQTRK)", "u": "Ru", "Binding affinity": 135}
{"substance": "6mer-2-324 (KLQSRK)", "u": "Ru", "Binding affinity": 139}
{"substance": "6mer-2-279 (KSLQRK)", "u": "Ru", "Binding affinity": 148}
{"substance": "6mer-2-351 (KLYTKR)", "u": "Ru", "Binding affinity": 135}
{"substance": "6mer-2-248 (RSYTRR)", "u": "Ru", "Binding affinity": 154}
{"substance": "6mer-2-374 (KRQLKK)", "u": "Ru", "Binding affinity": 125}
{"substance": "6mer-2-256 (KSQQKR)", "u": "Ru", "Binding affinity": 142}
{"substance": "6mer-2-325 (RVFSRK)", "u": "Ru", "Binding affinity": 142}
{"substance": "6mer-2-203 (KSRTKR)", "u": "Ru", "Binding affinity": 135}
{"substance": "6mer-2-213 (KSILRR)", "u": "Ru", "Binding affinity": 142}
{"substance": "6mer-2-257 (KRFCRK)", "u": "Ru", "Binding affinity": 144}
{"substance": "6mer-2-239 (RGQYKK)", "u": "Ru", "Binding affinity": 125}
{"substance": "6mer-2-269 (KWVQRK)", "u": "Ru", "Binding affinity": 123}
{"substance": "6mer-2-305 (KQFYKK)", "u": "Ru", "Binding affinity": 154}
{"substance": "6mer-2-216 (KGILKK)", "u": "Ru", "Binding affinity": 126}
{"substance": "6mer-2-307 (RLRSKK)", "u": "Ru", "Binding affinity": 141}
